Test: Hepatocyte Stability Assay, human hepatocytes
Assay type: in vitro ADME
Settings: both sexes, cryopreserved hepatocytes, pH 7.3; human hepatocytes 0.7 million cells per mL, 1 uM compound
ATTRIBUTE_MEASURED: hepatocyte CLint at 1 uM

Reference set, count: 3
CS(=O)(=O)c1cnc2cc(N3CCOCC3)nc(O[C@H]3CC[C@@H](Nc4ncccn4)CC3)c2c1 [Compound 200b]: < 8.2 µL/min/1e6 cells
O=C(Cn1c(=O)n(C2CCOCC2)c2nc(N[C@H]3CC[C@@H](Oc4nc(N5CCOCC5)cc5ncccc45)CC3)ncc21)N1CCC1: > 8.2 µL/min/1e6 cells
CN1CCN(C(=O)COc2cnc(N[C@H]3CC[C@@H](Oc4nc(N5CCOCC5)cc5ncccc45)CC3)nc2)CC1: > 8.2 µL/min/1e6 cells

[Q] Answer with the recorded hepatocyte CLint at 1 uM of O=c1[nH]c2cnc(N[C@H]3CC[C@@H](Oc4nc(N5CCOCC5)cc5ncccc45)CC3)nc2n1C1CCOCC1 only.
[A] > 8.2 µL/min/1e6 cells

[Q] Quote hepatocyte CLint at 1 uM reported for O=S(=O)(CF)Nc1cnc2cc(N3CCOCC3)nc(O[C@H]3CC[C@@H](Nc4ncccn4)CC3)c2c1 please.
[A] < 8.2 µL/min/1e6 cells

[Q] Give the reported value of hepatocyte CLint at 1 uM for this record: Cn1c(=O)[nH]c2cnc(N[C@H]3CC[C@@H](Oc4nc(N5CCOCC5)cc5ncccc45)CC3)nc21
[A] > 8.2 µL/min/1e6 cells

[Q] Tell me measured hepatocyte CLint at 1 uM for CC(=O)NCCOc1cnc(N[C@H]2CC[C@@H](Oc3nc(N4CCOCC4)cc4ncccc34)CC2)nc1 please.
[A] < 8.2 µL/min/1e6 cells

[Q] State its hepatocyte CLint at 1 uM for this compound: O=C(COc1cnc(N[C@H]2CC[C@@H](Oc3nc(N4CCOCC4)cc4ncccc34)CC2)nc1)N1CC(F)C1
[A] < 8.2 µL/min/1e6 cells

[Q] Supply recorded hepatocyte CLint at 1 uM for CN(C)C(=O)Cn1ccc2nc(N[C@H]3CC[C@@H](Oc4nc(N5CCOCC5)cc5ncccc45)CC3)ncc21 here.
[A] < 8.2 µL/min/1e6 cells

* * *

Biological target: DNA-PK phosphorylation at Serine 2056 (Homo sapiens)
Construct: FaDu cells were purchased from ATCC; host or cells: FaDu
Experiment: Cellular Assay for Inhibition of DNA-PK Phosphorylation at Serine 2056 in FaDu cells (sandwich ELISA, neocarzinostatin)
Format: cell-based
Settings: pSer2056 DNA-PK, neocarzinostatin 1 μg/mL, Table 1
pIC50: −log10 of the molar value.
ATTRIBUTE_MEASURED: pIC50

[Q] Quote pIC50 with test system DNA-PK phosphorylation at Serine 2056 (Homo sapiens) for Cn1cc([C@H]2CC[C@@H](Oc3nc(N4CCOCC4)cc4ncc(OCCO)cc34)CC2)cn1 [Compound 5]
[A] 4.52 to 5.00

[Q] Give reported pIC50 for O=C(NS(=O)(=O)C1CC1)c1cnc2cc(N3CCOCC3)nc(O[C@H]3CC[C@@H](n4ccnc4)CC3)c2c1 [Compound 174] (DNA-PK phosphorylation at Serine 2056 (Homo sapiens))
[A] 4.52 to 5.00

[Q] Report value only: pIC50, DNA-PK phosphorylation at Serine 2056 (Homo sapiens), CS(=O)(=O)c1cnc2cc(N3CCOCC3)nc(O[C@H]3CC[C@@H](NC(=O)c4ncco4)CC3)c2c1 [Compound 204c]
[A] > 7.00

* * *

Test: Microsomal Stability Assay, human liver microsomes
Type: in vitro ADME
Conditions: human liver microsomes, 60 min
ATTRIBUTE_MEASURED: Microsomal Stability Human % rem. 60 min

NCCOc1cnc(N[C@H]2CC[C@@H](Oc3nc(N4CCOCC4)cc4ncccc34)CC2)nc1 [Compound 65]: G (% remaining = 50-75%)
CN(C)C(=O)COc1ccc(N[C@H]2CC[C@@H](Oc3nc(N4CCOCC4)cc4ncccc34)CC2)nc1 [Compound 55]: F (% remaining = 25-50%)
CN(C)C(=O)COc1ccnc(N[C@H]2CC[C@@H](Oc3nc(N4CCOCC4)cc4ncccc34)CC2)n1 [Compound 56]: E (% remaining = 0-25%)
CN(C)C(=O)COc1cnc(N[C@H]2CC[C@@H](Oc3nc(N4CCOCC4)cc4ncccc34)CC2)nc1 [Compound 54]: E (% remaining = 0-25%)
CS(=O)(=O)NCCOc1cnc(N[C@H]2CC[C@@H](Oc3nc(N4CCOCC4)cc4ncccc34)CC2)nc1 [Compound 67]: E (% remaining = 0-25%)
CN(C)C(=O)Cn1ccc(C(=O)N[C@H]2CC[C@@H](Oc3nc(N4CCOCC4)cc4ncccc34)CC2)c1 [Compound 141]: G (% remaining = 50-75%)
O=C(COc1cnc(N[C@H]2CC[C@@H](Oc3nc(N4CCOCC4)cc4ncccc34)CC2)nc1)N1CCOCC1 [Compound 61]: F (% remaining = 25-50%)
CN(C)C(=O)COc1cnc(N[C@H]2CC[C@@H](Oc3nc(N4CCOCC4)cc4ncc(NS(C)(=O)=O)cc34)CC2)nc1 [Compound 182]: G (% remaining = 50-75%)
CC(=O)NCCOc1cnc(N[C@H]2CC[C@@H](Oc3nc(N4CCOCC4)cc4ncccc34)CC2)nc1 [Compound 66]: F (% remaining = 25-50%)

Consider now this further compound.
[Q] Read the entry CNC(=O)COc1cnc(N[C@H]2CC[C@@H](Oc3nc(N4CCOCC4)cc4ncccc34)CC2)nc1 [Compound 71] and write its reported Microsomal Stability Human % rem. 60 min.
[A] F (% remaining = 25-50%)

* * *

Assay: Pharmacokinetic study in male Beagle dogs (IV and PO), plasma
Assay type: in vivo, dog
Conditions: male, Beagle; dog plasma, PO, 10 mg/kg
ATTRIBUTE_MEASURED: AUC(0-t) (ng·h/mL)
Please give a number only; it is taken to be in ng·h/mL.

# annotated cases, reported AUC(0-t) shown
CN1CCN(CCOc2cnc(N[C@H]3CC[C@@H](Oc4nc(N5CCOCC5)cc5ncccc45)CC3)nc2)CC1: 5640
CN(C)C(=O)Cn1ccc2nc(N[C@H]3CC[C@@H](Oc4nc(N5CCOCC5)cc5ncccc45)CC3)ncc21: 6090

Attention now turns to another entry.
[Q] Identify measured AUC(0-t) associated with O=C(COc1cnc(N[C@H]2CC[C@@H](Oc3nc(N4CCOCC4)cc4ncccc34)CC2)nc1)N1CCOCC1
[A] 5300

* * *

Assay: Microsomal Stability Assay, mouse liver microsomes
Format: in vitro ADME
Conditions: male, CD-1, pH 7.4; mouse liver microsomes 0.1 mg/mL, 0.1 uM compound
Experimental: Samples were then mixed and centrifuged. Supernatants were used for HPLC-MS/MS analysis. […] Peak areas corresponding to the test compound were recorded.
ATTRIBUTE_MEASURED: microsomal CLint at 0.1 uM

[Q] Tell me its microsomal CLint at 0.1 uM given O=C(COc1cnc(N[C@H]2CC[C@@H](Oc3nc(N4CCOCC4)cc4ncccc34)CC2)nc1)N1CCC1 [Compound 75] as the entry.
[A] < 116 µL/min/mg

[Q] Given CNC(=O)COc1cnc(N[C@H]2CC[C@@H](Oc3nc(N4CCOCC4)cc4ncccc34)CC2)nc1 [Compound 71] , respond with its microsomal CLint at 0.1 uM.
[A] < 116 µL/min/mg

[Q] Using the record for Cc1noc(C)c1-c1cnc2cc(N3CCOCC3)nc(O[C@H]3CC[C@@H](n4ccnc4)CC3)c2c1 [Compound 157] , state its measured microsomal CLint at 0.1 uM.
[A] > 116 µL/min/mg

[Q] Indicate its recorded microsomal CLint at 0.1 uM; the molecule in question is NC(=O)c1cnc2cc(N3CCOCC3)nc(O[C@H]3CC[C@@H](n4ccnc4)CC3)c2c1 [Compound 166]
[A] > 116 µL/min/mg

[Q] Return reported microsomal CLint at 0.1 uM. Input molecule: CN1CCN(CCOc2cnc(N[C@H]3CC[C@@H](Oc4nc(N5CCOCC5)cc5ncccc45)CC3)nc2)CC1 [Compound 69]
[A] > 116 µL/min/mg

[Q] Note microsomal CLint at 0.1 uM for the molecule shown: O=C(COc1cnc(N[C@H]2CC[C@@H](Oc3nc(N4CCOCC4)cc4ncccc34)CC2)nc1)N1CCNCC1 [Compound 63]
[A] > 116 µL/min/mg

[Q] Using the record for NCCOc1cnc(N[C@H]2CC[C@@H](Oc3nc(N4CCOCC4)cc4ncccc34)CC2)nc1 [Compound 65] , state its measured microsomal CLint at 0.1 uM.
[A] < 116 µL/min/mg

[Q] Given the molecule CS(=O)(=O)NC(=O)c1cnc2cc(N3CCOCC3)nc(O[C@H]3CC[C@@H](n4ccnc4)CC3)c2c1 [Compound 175] , write its reported microsomal CLint at 0.1 uM.
[A] < 116 µL/min/mg

* * *

Experiment: Pharmacokinetic study in mice (IV and PO), plasma
Assay type: in vivo, mouse
Settings: female, C57BL/6, po; mouse plasma, PC, 3 mg/kg
ATTRIBUTE_MEASURED: Cmax at 5 min (ng/mL)
// note: answer is a bare numeric in ng/mL

[Q] // Input: CN(C)C(=O)COc1cnc(N[C@H]2CC[C@@H](Oc3nc(N4CCOCC4)cc4ncccc34)CC2)nc1 . Output its Cmax at 5 min only.
[A] 2220

Where these numbers come from: patent US20240239790A1
